Molecular target: UniProt:Q9NWZ3
Sequence (Q9NWZ3 1-460): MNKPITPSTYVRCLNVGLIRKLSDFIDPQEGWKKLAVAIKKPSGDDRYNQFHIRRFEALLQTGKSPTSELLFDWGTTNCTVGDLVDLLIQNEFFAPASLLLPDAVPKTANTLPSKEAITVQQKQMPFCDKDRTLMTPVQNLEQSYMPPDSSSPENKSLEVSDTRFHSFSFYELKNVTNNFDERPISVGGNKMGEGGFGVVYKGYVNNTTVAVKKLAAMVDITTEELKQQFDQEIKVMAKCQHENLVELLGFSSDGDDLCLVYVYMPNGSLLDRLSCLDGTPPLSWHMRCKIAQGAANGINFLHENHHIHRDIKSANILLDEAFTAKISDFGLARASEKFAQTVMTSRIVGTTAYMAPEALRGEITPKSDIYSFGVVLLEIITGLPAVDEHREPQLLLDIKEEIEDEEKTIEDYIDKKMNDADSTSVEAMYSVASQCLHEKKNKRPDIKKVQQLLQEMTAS
Test: 2-hour 10 μM ATP Biochemical Assay (MesoScale Detection format; IRAK4 phosphorylation of biotin labeled IRAK1 activation loop peptide)
Conditions: IRAK4 MSD BIOCHEMICAL (10 μM ATP) IC50 (μM), 1 nM IRAK4, 2 hours
Reported log10(IC50) values for the following molecules.
Hello, just confirming the data are log10 of IC50 with units of µM.

Answered examples (10):
CCOc1cc2nc(C3CCOCC3)cn2cc1NC(=O)c1ccn(C(C)C)n1 [Example 206] : -2.30
CCOc1cc(NC(=O)c2cccc(C(F)F)n2)cn2cc(C3CC3)nc12 [Example 28] : -1.37
CCOc1cc2nc(CC3COCCO3)cn2cc1NC(=O)c1cccc(C(F)F)n1 (centres unmarked) [Example 83] : -3.00
C[C@H](COc1cc2nc(C3CC3)cn2cc1NC(=O)c1cccc(C(F)F)n1)n1ccccc1=O (single isomer, unassigned) [Example 7] : -0.55
CCOc1cc2nc(C3CCN(C)CC3)cn2cc1NC(=O)c1cccc(C(F)(F)F)n1 [Example 67] : -3.00
CCOc1cc2nc(Cc3ccn(C)n3)cn2cc1NC(=O)c1cccc(C(F)F)n1 [Example 84] : -1.09
CCOc1cc2nc(C3CCOCC3)cn2cc1NC(=O)c1cccc(OC)c1F [Example 215] : -2.10
CCOc1cc2nc(C3CC3)cn2cc1NC(=O)c1cccc(C(F)(F)F)c1 [Example 54] : -0.85
CCOc1cc2nc(C3CCOCC3)cn2cc1NC(=O)c1cccc(C(F)CF)n1 (centres unmarked) [Example 239] : -2.70
COc1cc(NC(=O)c2cccc(C(F)F)n2)cn2cc(C3CC3(F)F)nc12 (single isomer, unassigned) [Example 513] : -1.82

Qu. Please give the measured log10(IC50) for this molecule: CCOc1cc2nc(C(C)C3CCOC3)cn2cc1NC(=O)c1cccc(C(F)(F)F)n1 (single isomer, unassigned) [Example 139]
Ans. -3.00

Qu. For the molecule shown here, CCOc1cc2nc(C3CCOCC3)cn2cc1NC(=O)c1cccc(OCCOC)n1 [Example 516] , give the reported log10(IC50).
Ans. -2.15

Qu. Data request, read-out log10(IC50), for CCOc1cc2nc(C)c(C)n2cc1NC(=O)c1cccc(C(F)(F)F)n1 [Example 58]
Ans. -0.96

Qu. Endpoint output: log10(IC50) of O=C(Nc1ccc2nc(CC3CCOC3)cn2c1)c1cccc(C(F)F)n1 (centres unmarked) [Example 355] . Value?
Ans. -2.10

Qu. Suppose we examine the molecule O=C(Nc1cn2cc(C3CCOCC3)nc2cc1OC1CCCC1)c1cccc(C(F)F)n1 [Example 175] ; what log10(IC50) value has been reported?
Ans. -3.00

----------
Target: IRAK4 (Homo sapiens, UniProt Q9NWZ3)
Experiment: 2-hour 1 mM ATP IRAK4 Biochemical assay (as above, but with 100 pM IRAK4 and 1 mM ATP)
Conditions: IRAK4 MSD BIOCHEMICAL (1 mM ATP) IC50 (μM), 100 pM IRAK4, 2 hours
Counter-ions that a name gives are not always drawn.
Could you mark each record Satisfied if its IC50 falls strictly under 0.02 µM, and Not satisfied if it equals or exceeds it?

Recorded results for 6 compounds are shown here.
CC(C)Oc1nc2nc(C3C4COCC43)cn2cc1NC(=O)c1ccn(C(C)C)n1 (stereo not shown) [Example 501, hydrochloride] : Satisfied
COc1nc(NC(=O)c2ccn(C)n2)cn2cc(C3CCOCC3)nc12 [Example 461, Hydrochloride] : Not satisfied
CCOc1cc2nc(C3CCOCC3)cn2cc1NC(=O)c1ccn2c1CCC2 : Not satisfied
COc1cc(NC(=O)c2cccc(C(F)F)n2)cn2cc(C3CCCOC3)nc12 (single isomer, unassigned) [Example 269] : Satisfied
CC(C)Oc1cc2nc(C3CCOCC3)cn2cc1NC(=O)c1cc(C(F)F)cs1 : Not satisfied
CCOc1cc2nc(CCCO)cn2cc1NC(=O)c1cccc(C(F)F)n1 : Satisfied

We now examine a further compound.
Qu. Identify whether the compound COc1nc(NC(=O)c2cccc(C(F)F)n2)cn2cc(C34CC(OC)(C3)C4)nc12 [Example 553, 2,2,2-trifluoroacetate] records IC50 below 0.02 µM.
Ans. Satisfied

----------
Target: IRAK4 (Homo sapiens, UniProt Q9NWZ3)
Sequence (Q9NWZ3 1-460): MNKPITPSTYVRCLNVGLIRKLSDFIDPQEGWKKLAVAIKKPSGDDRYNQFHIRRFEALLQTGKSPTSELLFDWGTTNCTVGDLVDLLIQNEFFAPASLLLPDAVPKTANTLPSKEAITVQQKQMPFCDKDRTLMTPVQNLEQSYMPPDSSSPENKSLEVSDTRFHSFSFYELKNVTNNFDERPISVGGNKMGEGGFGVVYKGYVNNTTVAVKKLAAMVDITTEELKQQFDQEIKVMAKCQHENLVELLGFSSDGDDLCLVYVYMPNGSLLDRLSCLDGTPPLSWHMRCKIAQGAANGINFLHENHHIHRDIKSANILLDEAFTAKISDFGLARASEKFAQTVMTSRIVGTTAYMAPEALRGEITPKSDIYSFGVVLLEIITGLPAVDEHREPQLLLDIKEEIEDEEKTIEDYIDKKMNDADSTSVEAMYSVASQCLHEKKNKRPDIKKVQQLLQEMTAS
Assay: 2-hour 10 μM ATP Biochemical Assay (MesoScale Detection format; IRAK4 phosphorylation of biotin labeled IRAK1 activation loop peptide)
Conditions: IRAK4 MSD BIOCHEMICAL (10 μM ATP) IC50 (μM), 1 nM IRAK4, 2 hours
readout-type: IC50 (µM)
Just the number in µM, nothing appended.

Completed entries (count: 3):
CCOc1nc(NC(=O)c2cccc(OC)n2)cn2cc(C3CCOCC3)nc12 : 0.011
CCOc1cc2nc(C3CCOCC3)cn2cc1NC(=O)c1cccc(N(C)C)n1 : 0.001
O=C(Nc1cn2cc(C3CC3)nc2cc1OCCN1CCOCC1)c1cccc(C(F)F)n1 : 0.061

Qu. Param readout = IC50; param system = IRAK4 (Homo sapiens, UniProt Q9NWZ3); param query = CCOc1cc2nc(CC3CCOC3)cn2cc1NC(=O)c1cccc(OC)n1 (stereo not shown) ; response: value
Ans. 0.002

Qu. Please tell me: IC50 of CCOCc1cn2cc(NC(=O)c3cccc(C(F)(F)F)n3)c(OCC)cc2n1 , system IRAK4 (Homo sapiens, UniProt Q9NWZ3)?
Ans. 0.003

Qu. Lab request: please report IC50 under test system IRAK4 (Homo sapiens, UniProt Q9NWZ3) for CCOc1cc2nc(C3CCCC(=O)N3C)cn2cc1NC(=O)c1cccc(C(F)F)n1 (stereo not shown)
Ans. 0.001

Qu. Which measured IC50 belongs to CCOc1cc2nc([C@H](C)[C@H]3CCOC3)cn2cc1NC(=O)c1cccc(C(F)(F)F)n1 (single isomer, unassigned) , tested on IRAK4 (Homo sapiens, UniProt Q9NWZ3)?
Ans. 0.001

Qu. What IC50 appears in the records for this molecule with IRAK4 (Homo sapiens, UniProt Q9NWZ3)? CCOc1cc2nc(C3CCOCC3)cn2cc1NC(=O)c1cccc(C(F)F)c1
Ans. 0.013

Qu. State its IC50 on IRAK4 (Homo sapiens, UniProt Q9NWZ3): CCOc1cc2nc(C3CCOCC3)cn2cc1NC(=O)c1ccn(C(C)(C)C)n1
Ans. 0.021

Qu. Record lookup: for IRAK4 (Homo sapiens, UniProt Q9NWZ3), what IC50 belongs to CCOc1cc2nc(C3CCOCC3)cn2cc1NC(=O)c1ccc(F)cn1 ?
Ans. 0.007

----------
Target: IRAK4 (Homo sapiens, UniProt Q9NWZ3)
Assay: 2-hour 10 μM ATP Biochemical Assay (MesoScale Detection format; IRAK4 phosphorylation of biotin labeled IRAK1 activation loop peptide)
Conditions: IRAK4 MSD BIOCHEMICAL (10 μM ATP) IC50 (μM), 1 nM IRAK4, 2 hours
readout-type: IC50 (µM)
Enter your answer as a number in µM; do not include the unit.

CCOc1cc2nc(C(F)F)cn2cc1NC(=O)c1cccc(C(F)(F)F)n1 : 0.003

Qu. Which value of IC50 has been reported for CCc1cn2cc(NC(=O)c3cccc(C(F)F)n3)cc(F)c2n1 in the records?
Ans. 0.17

Qu. Find the recorded IC50 belonging to CCOc1cc2nc(CC)cn2cc1NC(=O)c1ccn(C(F)F)n1 and report it.
Ans. 0.012

Qu. For the compound O=C(Nc1ccc2nc(C3CC3)cn2c1)c1cccc(C(F)F)n1 , what IC50 is on record?
Ans. 0.048

Qu. Entry CCOc1cc2nc([C@@H]3C[C@H]3F)cn2cc1NC(=O)c1cccc(C(F)F)n1 (stereo in doubt) : reported IC50 = ?
Ans. 0.002

Qu. I'd like to know its IC50. The compound in question is CCOc1cc2nc(C3CC3)c(F)n2cc1NC(=O)c1cccc(C(F)F)n1
Ans. 0.023

Qu. Dear colleague, I am looking for the recorded IC50 of the following compound: CCOc1cc2nc(CC)cn2cc1NC(=O)c1ccc2c(n1)CCC2
Ans. 0.006
